Entry source: the supplement of paper PMC5908809

- Tested on: SNK-6 (IL-2 2.5 ng/mL);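 further: normalised to DMSO-only wells as negative and benzethonium chloride as positive control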
- experiment: percent inhibition of viability; higher = more inhibition
- assayContext: 72 h; 10000 nM
// percent inhibition of viability lookup, one value per entry
Response body: numeric value in %, unit text excluded.

>>> df
                                   compound  observedresult
0  Nc1cc(F)ccc1NC(=O)/C=C/c1cnn(C/C=C/c2ccccc2)c1 [RGFP966] (max concentration tested 10000 nM)            62.2
1  COc1ccc(S(=O)(=O)Nc2cccnc2Nc2ccc(O)cc2)cc1 [ABT-751] (max concentration tested 10000 nM)            89.2

I'd like to know its percent inhibition of viability. The compound in question is Cc1c(C(=O)Nc2ccc(N3C[C@@H](C)O[C@@H](C)C3)nc2)cccc1-c1ccc(OC(F)(F)F)cc1 [Sonidegib] (max concentration tested 10000 nM)
25.6
